Sourced from patent US20250145566A1

# ASSAY_OVERVIEW: Rat liver microsomes (RLM) in vitro metabolism
# Assay type: in vitro ADME
# CONDITION_LABEL: Sprague-Dawley, pH 7.4; rat liver microsomes, test compound 1 μM; * = apparent NADPH independent reaction; read-out: RLM t1/2
half-life at 1 µM overview

Examples with answers:
1. [2H]C1([2H])Oc2cc(CC(C)N)ccc2S1 (stereo not drawn) | 12.6 min
2. [2H]C1([2H])Oc2ccc(CCN)cc2O1 | < 5 min

Req: I would be grateful if you could share the reported half-life at 1 µM for NCCc1ccc2c(c1)OCO2 [Reference Compound 5, 3,4-Methylenedioxyphenethylamine, reference compound] .
Resp: < 5 min

Req: Can you handle [2H]C1([2H])Oc2cc(CCN)ccc2S1 next?
Resp: < 5 min

Req: Subsequent entry: NCCc1ccc2c(c1)OCS2
Resp: < 5 min

Req: Same lookup for CC(N)Cc1ccc2c(c1)OCS2 (stereo not drawn) , please.
Resp: 11.7 min
